- tested system: CYP3A4 (Homo sapiens, UniProt P08684)
- Sequence (P08684 whole entry): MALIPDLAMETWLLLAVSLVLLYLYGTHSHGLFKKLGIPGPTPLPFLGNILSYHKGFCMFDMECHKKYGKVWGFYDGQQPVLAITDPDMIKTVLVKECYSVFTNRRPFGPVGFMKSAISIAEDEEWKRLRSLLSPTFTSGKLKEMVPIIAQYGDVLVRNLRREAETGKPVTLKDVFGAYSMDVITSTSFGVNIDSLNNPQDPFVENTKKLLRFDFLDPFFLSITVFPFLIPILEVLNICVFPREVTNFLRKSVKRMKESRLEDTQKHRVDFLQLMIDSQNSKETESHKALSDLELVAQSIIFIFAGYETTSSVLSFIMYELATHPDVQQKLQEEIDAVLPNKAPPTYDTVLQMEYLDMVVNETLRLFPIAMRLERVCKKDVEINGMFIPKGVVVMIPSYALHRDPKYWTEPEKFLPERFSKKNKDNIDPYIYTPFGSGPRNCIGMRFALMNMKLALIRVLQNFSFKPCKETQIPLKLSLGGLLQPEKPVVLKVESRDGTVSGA
- run description: biochemical
measured endpoint: AC50
Answer as a quantity: numeral, then unit.

Below: 3 molecules and their reported AC50.
molecule=Clc1nnc(Cl)c2ccccc12 result="5.51 µM"
molecule="CCCOC(=O)c1ccc(C(=O)OCCC)nc1 [Dipropyl 2,5-pyridinedicarboxylate]" result="31.9 µM"
molecule="O=C(OCCc1ccccc1)c1ccccc1 [2-Phenylethyl benzoate]" result="7.51 µM"

Could you share what AC50 was measured for CCCCC(C=O)CC (stereo not drawn) , tested on CYP3A4 (Homo sapiens, UniProt P08684)?
45.1 µM

Next molecule: `O=C1OC2(c3ccccc31)c1ccc(O)c(Br)c1Oc1c2ccc(O)c1Br`
27.2 µM

Also CCC1OCC(COc2ccc(Oc3ccccc3)cc2)O1 (stereo not drawn) , if possible.
35.7 µM
